Details: in n-butanol, 284.35 K
resultType: solubility (mole fraction)
Response field accepts a number only; no unit should be typed.

Record summary for `COc1ccc2nc(SCc3ncc(C)c(OC)c3C)[nH]c2c1` : reported solubility (mole fraction) = 0.0134

====

Conditions: in ethanol, 300.25 K
resultType: solubility (mole fraction)
Response field accepts a number only; no unit should be typed.

Record summary for `COc1ccc2nc(SCc3ncc(C)c(OC)c3C)[nH]c2c1` : reported solubility (mole fraction) = 0.0511

====

Conditions: in ethanol, 311.15 K
resultType: solubility (mole fraction)
Response field accepts a number only; no unit should be typed.

Record summary for `COc1ccc2nc(SCc3ncc(C)c(OC)c3C)[nH]c2c1` : reported solubility (mole fraction) = 0.0946

Source listed as BigSolDB 2.1.
